Method summary: Activity of human recombinant glutaredoxin assessed as enzyme-mediated (E)-2-(1-((S)-1-(2-chlorophenyl)-2-methoxy-2-oxoethyl)-4-mercaptopiperidin-3-ylidene)acetic acid formation
Type: ADME
Reported property: Km
Write the numeric value and follow it with the unit.

So, COC(=O)[C@H](c1ccccc1Cl)N1CCC(SSC[C@H](NC(=O)CC[C@H](N)C(=O)O)C(=O)NCC(=O)O)/C(=C/C(=O)O)C1 (stereo partly specified) ? Its Km was 30 µM
